Cited source for all entries: PubChem BioAssay AID1159580

Test: chemical genetic growth profiling, strain panel (AID 1159580);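 also: tested at 20 µM; growth read once vehicle control cultures reached saturation at 30 °C; 1 = growth at the plate median or of vehicle wells; lower values mean less growth of the strain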
Details: S. cerevisiae deletion strains, growth OD, locus YEL061C, strain CIN8 (second series), active compounds read low
The whole screen tested about 5,500 compounds, of which about 2,000 (36%) were called active. Another 18% or so got no clear call; they are omitted. This is one part of the list.
Consider the following compounds and their measured normalized growth readings.
Number only, please.

Worked cases, answers included:
compound="CC1(C)C2CC[C@]3(C)C(C(=O)C=C4[C@@H]5C[C@@](C)(C(=O)O)CC[C@]5(C)CC[C@]43C)[C@@]2(C)CC[C@@H]1O (stereo partly drawn)" measured_quantity="normalized growth" numeric_value=1.01
compound=COc1ccc(C(=O)c2ccccc2O)c(O)c1 measured_quantity="normalized growth" numeric_value=0.874
compound=COc1cc(O)c(C(=O)c2ccccc2)cc1O measured_quantity="normalized growth" numeric_value=1.01
compound=COc1ccc(C(=O)c2ccccc2)c(O)c1 measured_quantity="normalized growth" numeric_value=0.813
compound="CCC(C(=O)O)c1ccccc1 (stereo not drawn)" measured_quantity="normalized growth" numeric_value=0.998

Dear colleague, please send me the reported normalized growth for CC1(C)C2CC[C@]3(C)C(C(=O)C=C4[C@@H]5C[C@@](C)(C(=O)O)CC[C@]5(C)CC[C@]43C)[C@@]2(C)CC[C@@H]1OC(=O)CCC(=O)O (stereo partly drawn) when you can. 0.988

Look up and state reported normalized growth for CC[C@H]1OC(=O)C[C@@H](O)[C@H](C)[C@@H](O[C@@H]2O[C@H](C)[C@@H](O[C@H]3C[C@@](C)(O)[C@@H](O)[C@H](C)O3)[C@H](N(C)C)[C@H]2O)[C@@H](CC=O)C[C@@H](C)C(=O)/C=C/C(C)=C/[C@@H]1CO[C@@H]1O[C@H](C)[C@@H](O)[C@@H](OC)[C@H]1OC 0.992

Determine its reported normalized growth: CC[C@@H](CO)NCCN[C@@H](CC)CO 1.01

* * *

Experiment: chemical genetic growth profiling, strain panel (AID 1159580);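 also: tested at 20 µM; growth read once vehicle control cultures reached saturation at 30 °C; 1 = growth at the plate median or of vehicle wells; lower values mean less growth of the strain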
Settings: S. cerevisiae deletion strains, growth OD, locus YEL061C, strain CIN8
Screen size: about 5,500 compounds; about 2,000 (36%) were called active. Roughly 18% stayed inconclusive and do not appear here. No stated cut-off is given here; in the data, active means normalized growth mostly below about 0.91 (no sharp cut-off); inconclusive means no clear call, values can overlap the other calls; inactive means mostly above about 0.92. Some of the results follow.
Write down one outcome, taken from y (active), n (inactive)

Field: example entries. Status: answers known.
compound="O[C@H]1C=C2CCN3Cc4cc5c(cc4C(C23)[C@@H]1O)OCO5 (some centres undefined)" category=y
compound="COc1ccc(CC2c3cc(OC)c(OC)cc3CCN2C)cc1OC (centres undefined)" category=n
compound="CN1CCc2cc3c(cc2C1O)OCO3 (centres undefined)" category=n
compound=CC(C)[N+](C)(CCOC(=O)C1c2ccccc2Oc2ccccc21)C(C)C category=n
compound="CO[C@H]1C[C@H](O[C@H]2[C@H](C)[C@@H](OC3O[C@H](C)C[C@H](N(C)C)[C@H]3O)[C@@H](C)C[C@]3(CO3)C(=O)[C@H](C)[C@@H](O)[C@@H](C)[C@@H](C)OC(=O)[C@@H]2C)O[C@@H](C)[C@@H]1O (some centres undefined)" category=n

Identify the outcome logged in this assay for the compound shown: O=[N+]([O-])O[C@H]1CO[C@H]2[C@@H]1OC[C@H]2O[N+](=O)[O-] n

Call for entry Oc1c(Cl)c(Cl)c(Cl)c(Cl)c1Cl : y

Which outcome was entered for the compound CC(=O)O[C@@](C)(CCC=C(C)C)C1CC=C(C)CC1 (some centres undefined) in this test? n

What call does the record list for CN1Cc2c(ccc3c2OCO3)C2C(O)Cc3cc4c(cc3C21)OCO4 (centres undefined) ? n
